Origin of measurements: patent US20250248979A1

Test system: SU-DHL-6
Experiment: Cytotoxicity in DLBCL cells, SU-DHL-6
Format: cell-based, human
Conditions: SU-DHL-6; Fer-1 1.0 μM; read-out: IC50 (μM) with Fer-1
Measured IC50, listed per entry.
reported property: IC50

>>> result("CC(C)(COC(=O)CCl)NC(=O)c1nn(Cc2cc(Cl)cc(Cl)c2)c2cc(-c3ccc(N4CCOCC4)c(Cl)c3)ccc12 [QW-852]")
"5110 µM"
>>> result("COC(=O)c1ccc([C@@H]2c3[nH]c4ccccc4c3C[C@@H](C(=O)OC)N2C(=O)CCl)cc1 [RSL3, reference compound]")
"1.35 µM"

====

System: SK-HEP-1 cells
Assay: Cellular dose response assay, SK-HEP-1
Assay type: cell-based, human
Conditions: compounds alone; Table 7; read-out: IC50 (uM) SKHEP1^a
Procedure: HT-1080 (human [Homo sapiens] […] fibrosarcoma), A-673 (human [Homo sapiens] […] Ewing's sarcoma), and SK-HEP-1 (human [Homo sapiens] […] hepatic adenocarcinoma), cells were obtained from ATCC. […] HT-1080, HepG2, Huh7, HLF, and SK-HEP-1 cells were seeded into opaque white 384-well plates at 1500 cells per well then incubated at 37° C. with 5% CO2 overnight. […] Cell viability was evaluated using CellTiter-Glo (Promega G7573) and luminescence was recorded on a Victor 5 plate reader. […]
reported property: IC50 (µM)

>>> result("Cn1nc(C(=O)NC(C)(C)COC(=O)CCl)c2cccc(OC(=O)CCl)c21")
3.5
>>> result("COc1ccc2cc(C(=O)NCC(C)(C)COC(=O)CBr)[nH]c2c1")
5.1
>>> result("CC(C)(COC(=O)CCl)NC(=O)c1nn(-c2ccccc2)c2ccccc12")
3.8
>>> result("CC(C)(COC(=O)CCl)NC(=O)c1[nH]c2ccccc2c1Br")
3.9
>>> result("O=C(CBr)OCCCNC(=O)c1cc2cc(Cl)ccc2[nH]1")
2.3
>>> result("Cn1nc(C(=O)NC(C)(C)COC(=O)CCl)c2ccccc21")
28.4
>>> result("COC(=O)c1ccc([C@@H]2c3[nH]c4ccccc4c3C[C@@H](C(=O)OC)N2C(=O)CCl)cc1 [RSL3, reference compound]")
0.05
>>> result("CC(C)(COC(=O)CCl)NC(=O)c1n[nH]c2cc(Br)ccc12")
47
>>> result("Cn1nc(C(=O)NC(C)(C)COC(=O)CCl)c2cc(Br)ccc21")
0.8
>>> result("Cn1nc(C(=O)NC(C)(C)COC(=O)CBr)c2ccccc21")
0.3

====

Documented Microsome Stability t1/2 (min) mouse across a set of molecules
Experiment: in vitro
Assay type: in vitro ADME, mouse
Settings: mouse, microsomes
reported property: Microsome Stability t1/2 (min) mouse

>>> result("COc1ccc(-c2ccc3c(C(=O)NC(C)(C)COC(=O)CCl)nn(C)c3c2)cc1Cl")
"1.2 min"
>>> result("COC(=O)c1ccc([C@@H]2c3[nH]c4ccccc4c3C[C@@H](C(=O)OC)N2C(=O)CCl)cc1 [RSL3, reference compound]")
"2.4 min"
>>> result("Cn1nc(C(=O)NC(C)(C)COC(=O)CCl)c2ccc(-c3ccc(Cl)c(Cl)c3)cc21")
"15 min"
>>> result("CC(OC(=O)CCl)C(C)(C)NC(=O)c1nn(C)c2cc(-c3ccc(N4CCOCC4)c(Cl)c3)ccc12 (racemic)")
"7.4 min"

====

Target: UniProt:P36969
Experiment: GPX4 activity assay in cell lysates (NADPH-coupled)
Format: biochemical
Design: endogenous in cells; host or cells: A-673 cell lysate
Conditions: 2.5 μM
Reported GPX4% inhibition at 2.5 μM values for the following compounds.
reported property: GPX4% inhibition at 2.5 μM

>>> result("Cn1nc(C(=O)NC(C)(C)COC(=O)CCl)c2ccc(-c3ccc(Br)cc3)cc21 [QW-603]")
"45.5 ± 4.4%"
>>> result("COC(=O)C=CC(=O)OCC(C)(C)NC(=O)c1nn(C)c2cc(-c3ccc(OC)c(Cl)c3)ccc12 [QW-646]")
"52.0 ± 27.0%"
>>> result("COC(=O)c1ccc(-c2ccc3c(C(=O)NC(C)(C)CNC(=O)CCl)nn(C)c3c2)cc1Cl [QW-632]")
"−4.9 ± 21.8%"
>>> result("Cn1nc(C(=O)NC(C)(C)C(C)(C)OC(=O)CCl)c2ccc(-c3ccc(C(F)(F)F)c(Cl)c3)cc21 [QW-786]")
"31.7 ± 19.5%"

====

Molecular target: GPX4^U46C (Homo sapiens, UniProt P36969, U73C)
Sequence (P36969 1-170 isoform P36969-2 U46C): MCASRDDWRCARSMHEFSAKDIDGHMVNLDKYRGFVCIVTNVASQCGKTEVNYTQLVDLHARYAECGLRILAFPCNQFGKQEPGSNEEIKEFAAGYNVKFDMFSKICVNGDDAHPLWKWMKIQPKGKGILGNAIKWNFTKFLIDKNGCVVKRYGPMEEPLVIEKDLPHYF
Experiment: Microscale thermophoresis (MST) binding
Conditions: half maximal effective concentration, covalent mechanism
Protocol: The bacterial expression vector pET-15b-His-tagged-c-GPX4^U46C was prepared as previously described (Yang et al. 2016). The C-terminal His-tagged GPX4U46C protein was expressed in E. coli and purified according to a protocol modified from Scheerer et al. 2007. […] The fractions containing 90-95% pure GPX4 protein, as evaluated by SDS-PAGE, were pooled and concentrated using the same Amicon centrifugal filter units as above to 5 mg/mL. Concentration was determined by Nanodrop. […]
pEC50: −log10 of the molar value.
Each entry below lists one item and its recorded pEC50 value.
reported property: pEC50

>>> result("COc1cccc2[nH]c(C(=O)NC(C)(C)COC(=O)CCl)cc12 [QW-144]")
6.08
>>> result("Cc1ccc2[nH]c(C(=O)NC(C)(C)COC(=O)CCl)cc2c1 [QW-155]")
3.33
>>> result("CC(C)(COC(=O)CCl)NC(=O)c1cc2cc(Cl)ccc2[nH]1 [QW-164]")
5.68

====

Reported values of Solubility for individual entries
Test: Kinetic aqueous solubility
Details: aqueous solubility; Table 9
reported property: Solubility (µM)

>>> result("Cn1nc(C(=O)NC(C)(C)COC(=O)CCl)c2ccc(-c3ccc(Cl)c(Cl)c3)cc21 [QW-570]")
15.6
>>> result("COc1ccc(-c2ccc3c(C(=O)NC(C)(C)COC(=O)CCl)nn(C)c3c2)cc1C [QW-488]")
5.4
>>> result("COc1ccc2cc(C(=O)NC(C)(C)COC(=O)CCl)[nH]c2c1 [QW-152]")
88
>>> result("CC(C)(COC(=O)CCl)NC(=O)c1c[nH]c2cc(Br)ccc12 [QW-316]")
71
>>> result("CC(C)(COC(=O)CCl)NC(=O)c1n[nH]c2cc(Br)ccc12 [QW-313]")
47
>>> result("COC(=O)c1ccc([C@@H]2c3[nH]c4ccccc4c3C[C@@H](C(=O)OC)N2C(=O)CCl)cc1 [RSL3, reference compound]")
26
>>> result("CC(C)Oc1ccc(-c2ccc3c(C(=O)NC(C)(C)COC(=O)CCl)nn(C)c3c2)cc1 [QW-506]")
1.7
>>> result("COc1ccc(N(C(=O)CCl)C(C(=O)NCCc2ccccc2)c2cccs2)cc1Cl (centres unmarked) [ML162, reference compound]")
3.8

====

Reported IC50 values for the following compounds.
Test system: HT-1080 cells
Assay: Cellular dose response assay, HT-1080 with and without Fer-1
Assay type: cell-based, human
Conditions: read-out: IC50 against HT1080 cell lines
reported property: IC50 (nM)

>>> result("CC(C)(COC(=O)CCl)NC(=O)c1nn(Cc2cc(Cl)cc(Cl)c2)c2cc(-c3ccc(N4CCOCC4)c(Cl)c3)ccc12")
39.5
>>> result("COc1ccc(-c2ccc3c(C(=O)NC(C)(C)COC(=O)CCl)nn(Cc4cc(Cl)cc(Cl)c4)c3c2)cc1Cl")
43.5
>>> result("CC(C)Oc1ccc(-c2ccc3c(C(=O)NC(C)(C)COC(=O)CCl)nn(Cc4cc(Cl)cc(Cl)c4)c3c2)cc1Cl")
50.6

====

Target: panel of 44 targets (GPCRs, ion channels, enzymes, transporters, nuclear receptors)
Details: read-out: IC50 (M) Reference Compound (EC50 for agonist)
Measured IC50 of individual entries
reported property: IC50

>>> result("CNC1(C)C2CCC(C2)C1(C)C (centres unmarked) [Mecamylamine]")
"6.8e-07 M"
>>> result("C[C@]12N[C@H](Cc3ccccc31)c1ccccc12 [MK-801]")
"2.75e-08 M"

====

Experiment: Kinetic aqueous solubility
Details: phosphate buffered saline, pH 7.4, aqueous buffer, kinetic from dmso stock
reported property: solubility at 1 h (µM)

>>> result("Cn1nc(C(=O)NC(C)(C)COC(=O)CCl)c2ccc(Br)cc21 [QW-314]")
61
